Documented IC50 across a set of compounds
Target protein (sequence): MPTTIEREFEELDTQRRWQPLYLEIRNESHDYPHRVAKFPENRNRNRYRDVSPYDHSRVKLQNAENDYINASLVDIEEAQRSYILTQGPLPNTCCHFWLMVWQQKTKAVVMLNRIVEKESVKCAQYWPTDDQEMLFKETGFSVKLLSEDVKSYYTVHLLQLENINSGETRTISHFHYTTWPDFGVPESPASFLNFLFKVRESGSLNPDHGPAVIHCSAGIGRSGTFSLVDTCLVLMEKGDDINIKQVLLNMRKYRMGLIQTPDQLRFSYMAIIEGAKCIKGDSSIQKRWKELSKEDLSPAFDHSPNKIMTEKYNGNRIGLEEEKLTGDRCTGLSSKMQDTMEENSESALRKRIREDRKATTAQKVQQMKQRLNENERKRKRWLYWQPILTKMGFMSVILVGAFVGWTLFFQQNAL

Take a look at these entries with their results.
CC1(C)CCC2=C(O1)c1ccccc1C(=O)C2=O [S7261, β‐Lapachone] = > 200 µM
CCCCCCCCCCCC1=C(O)C(=O)C=C(O)C1=O [Embelin] = > 200 µM

Prompt: Look up IC50: CC1=NN(c2ccc(C)c(C)c2)C(=O)/C1=N\Nc1cccc(-c2cccc(C(=O)O)c2)c1O [S2229, Eltrombopag Olamine]
Response: > 200 µM
